The values you see were collected from patent US20210324050A1.

Target: GII.6 (AF414410) VLPs (norovirus GII.6)
Experiment: ELISA
pEC50: −log10 of the molar value.
Rule: 1 for pEC50 not less than 7, 0 for anything less.

Some solved cases for reference:
binder="NORO-156.3 (antibody, V domains shown) VH: QVQLQQWGAGLLKPSETLSLTCAVYGGSFSGYYWSWIRQPPGKGLEWIGEINHSGSTNYNPSLKSRVTISVDTSKNQFSLKLSSVTAADTAVYYCARGLMDVWGQGTLVTVSS VL: AIRMTQSPSSFSASTGDRVTITCRASQGISSYLAWYQQKPGKAPKLLIYAASTLQSGVPSRFSGSGSGTDFTLTISCLQSEDFATYYCQQYYSYPRTFGQGTKLEIK" group=1
binder="NORO-310A (antibody, V domains shown) VH: EVQLVESGGGLVRPGESLRLSCVASGFSVSDNYMSWVRQAPGKGLQWVSVIYSGGTTFYTDSVKGRFTISRDKSKNTLFLQMNSLRAEDTAVYFCTRDPSQYYDSRGHYYQTFTPSFDSWGQGTLVTVSS VL: DIQMTQSPSVMSASVGDRVTITCRASQDISDYLAWFQQKPGKVPKRLIYAASSLQNGVPSRFSGSGSGTEFTLTISSLQPEDFATYYCLQHDTYPLTFGGGTKVEIK" group=1
binder="NORO-178.6 (antibody, V domains shown) VH: QVQLVESGGGVVQPGRSLRLSCAASGFTFSTYGMNWVRQAPGRGLEWVADISYDGSNSRYADSVKGRFTISRDNSKNTLSLQMNGLRTEDTAVYYCAKDWYLAMAGAAFDSWGPGTLVTVSS VL: SSELTQDPVVSVALGQTVRITCQGDSLTTFYASWFQQKPGQAPALVLYGNDNRPSGIPDRFSGSRSGNTASLTITGAQAEDEADYYCNSRDSSGKPSFGGGTKLTVL" group=1
binder="NORO-279A (antibody, V domains shown) VH: QVQLVESGGGVVQPGRSLRLSCAASGFTFTKYGMHWVRQAPGKGLEWVAFIAYDGSVKYYGDSAKGRFAISRDNPKNTVYLQMNSLRAEDTAVYYCAKVEIHYYSNSLLGMDVWGQGTLVTVSS VL: QSVLTQPPSASGTPGQRVTISCSGGNSNIGISYVYWYQHLPGTAPKLLISKNNLRPSGVPDRFSASKSGTSASLAISGLRSEDEAEYYCATLDINMTWVFGGGTKLTVL" group=1

Now consider a different binder.
*Q* Tell me whether pEC50 is at least 7 here: NORO-168.2 (antibody, V domains shown) VH: QVQLVESGGGVVQPGRSLRLSCAASGFTFSSYAMHWVRQAPGKGLEWVAVISYDGSNKYYADSVKGRFTISRDNSKNTLYLQMNSLRAEDTAVYYCARSVIGYYYYGMDVWGQGTLVTVSS VL: QPVLTQPPSASASLGASVTLTCTLSSGYSNYKVDWYQQRPGKGPRFVMRVGTGGIVGSKGDGIPDRFSVLGSGLNRYLTIKNIQEEDESDYHCGADHGSGILFGGGTKLTVL
*A* 0
